Reported Kd values follow for various binders
testTarget: T1, Human IL-34 (19–241) (human, UniProt Q6ZMJ4 19-241)
T1 construct: IL-34, human, residues 19-241; source: Expi293F cells, secreted, purified from the media using NiNTA chromatography
T1 sequence (looked up): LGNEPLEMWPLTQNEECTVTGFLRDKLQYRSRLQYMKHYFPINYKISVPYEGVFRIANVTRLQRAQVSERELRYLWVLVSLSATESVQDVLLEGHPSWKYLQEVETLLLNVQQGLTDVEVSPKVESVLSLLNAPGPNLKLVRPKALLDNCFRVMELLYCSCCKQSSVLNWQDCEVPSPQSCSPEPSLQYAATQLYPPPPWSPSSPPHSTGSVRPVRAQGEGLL
methodNotes: BLI; biotinylated TREM2 WT or variant immobilised on SA biosensors; IL-34 62.5–1000 nM; PBS with 0.1% BSA and 0.005% Tween-20; 1:1 kinetic fits
appliedConditions: both partners purified
# number only, unit nM dropped from output

**Query** Can you share its Kd? I mean this binder: TREM2 (19–134) R77D, biotinylated (domain or fragment, human, UniProt Q9NZC2 19-134, looked up, biotin on the C-terminal BirA biotinylation sequence (enzymatic, BirA), source: Expi293F cells, purified, enzymatically biotinylated using BirA) HNTTVFQGVAGQSLQVSCPYDSMKHWGRRKAWCRQLGEKGPCQRVVSTHNLWLLSFLRDWNGSTAITDDTLGGTLTITLRNLQPHDAGLYQCQSLHGSEADTLRKVLVEVLADPLD
**Result** 114

**Query** And the next one, TREM2 (19–134) T85D, biotinylated (domain or fragment, human, UniProt Q9NZC2 19-134, looked up, biotin on the C-terminal BirA biotinylation sequence (enzymatic, BirA), source: Expi293F cells, purified, enzymatically biotinylated using BirA) HNTTVFQGVAGQSLQVSCPYDSMKHWGRRKAWCRQLGEKGPCQRVVSTHNLWLLSFLRRWNGSTAIDDDTLGGTLTITLRNLQPHDAGLYQCQSLHGSEADTLRKVLVEVLADPLD ?
**Result** 21.5

**Query** And the next one, TREM2 (19–134) T96K, biotinylated (domain or fragment, human, UniProt Q9NZC2 19-134, looked up, biotin on the C-terminal BirA biotinylation sequence (enzymatic, BirA), AD risk variant that occurs in nature; source: Expi293F cells, purified, enzymatically biotinylated using BirA) HNTTVFQGVAGQSLQVSCPYDSMKHWGRRKAWCRQLGEKGPCQRVVSTHNLWLLSFLRRWNGSTAITDDTLGGTLTIKLRNLQPHDAGLYQCQSLHGSEADTLRKVLVEVLADPLD ?
**Result** 23.7

**Query** And the next one, TREM2 (19–134) D87N, biotinylated (domain or fragment, human, UniProt Q9NZC2 19-134, looked up, biotin on the C-terminal BirA biotinylation sequence (enzymatic, BirA), AD risk variant that occurs in nature; source: Expi293F cells, purified, enzymatically biotinylated using BirA) HNTTVFQGVAGQSLQVSCPYDSMKHWGRRKAWCRQLGEKGPCQRVVSTHNLWLLSFLRRWNGSTAITDNTLGGTLTITLRNLQPHDAGLYQCQSLHGSEADTLRKVLVEVLADPLD ?
**Result** 28.4

**Query** And the next one, TREM2 (19–134) WT, biotinylated (domain or fragment, human, UniProt Q9NZC2 19-134, looked up, biotin on the C-terminal BirA biotinylation sequence (enzymatic, BirA), glycosylated (mammalian cells); also called TREM2 WT; source: Expi293F cells, purified, enzymatically biotinylated using BirA) HNTTVFQGVAGQSLQVSCPYDSMKHWGRRKAWCRQLGEKGPCQRVVSTHNLWLLSFLRRWNGSTAITDDTLGGTLTITLRNLQPHDAGLYQCQSLHGSEADTLRKVLVEVLADPLD ?
**Result** 16.5

**Query** And the next one, TREM2 (19–134) W78D, biotinylated (domain or fragment, human, UniProt Q9NZC2 19-134, looked up, biotin on the C-terminal BirA biotinylation sequence (enzymatic, BirA), source: Expi293F cells, purified, enzymatically biotinylated using BirA) HNTTVFQGVAGQSLQVSCPYDSMKHWGRRKAWCRQLGEKGPCQRVVSTHNLWLLSFLRRDNGSTAITDDTLGGTLTITLRNLQPHDAGLYQCQSLHGSEADTLRKVLVEVLADPLD ?
**Result** 17.2

**Query** And the next one, TREM2 (19–134) L75D, biotinylated (domain or fragment, human, UniProt Q9NZC2 19-134, looked up, biotin on the C-terminal BirA biotinylation sequence (enzymatic, BirA), source: Expi293F cells, purified, enzymatically biotinylated using BirA) HNTTVFQGVAGQSLQVSCPYDSMKHWGRRKAWCRQLGEKGPCQRVVSTHNLWLLSFDRRWNGSTAITDDTLGGTLTITLRNLQPHDAGLYQCQSLHGSEADTLRKVLVEVLADPLD ?
**Result** 36.6

**Query** And the next one, TREM2 (19–134) R46D, biotinylated (domain or fragment, human, UniProt Q9NZC2 19-134, looked up, biotin on the C-terminal BirA biotinylation sequence (enzymatic, BirA), source: Expi293F cells, purified, enzymatically biotinylated using BirA) HNTTVFQGVAGQSLQVSCPYDSMKHWGDRKAWCRQLGEKGPCQRVVSTHNLWLLSFLRRWNGSTAITDDTLGGTLTITLRNLQPHDAGLYQCQSLHGSEADTLRKVLVEVLADPLD ?
**Result** 18
